test system: A375 Sensitive cells; assay: Viability test, trypan blue exclusion, A375 Sensitive cells; type: cell-based, human; conditions: Homo sapiens, A-375; 10 μM, 48 h; viable cells as percentage of DMSO control; read-out: Viab A375 10 μM/ 48 h
property label: viability at 10 µM (%)
The reply should be a number in %, with the unit left off.

Guide cases for viability at 10 µM, answers given:
COc1cc(-c2nc(N)nc(Nc3ccccc3SSc3ccccc3Nc3nc(N)nc(-c4cc(OC)c(OC)c(OC)c4)n3)n2)cc(OC)c1OC : 1.8
Cc1ccc(-c2nc(N)nc(Nc3ccccc3SSc3ccccc3Nc3nc(N)nc(-c4ccc(C)cc4)n3)n2)cc1 : 12.5
Nc1nc(Nc2ccccc2SSc2ccccc2Nc2nc(N)nc(-c3ccccn3)n2)nc(-c2ccccn2)n1 : 32.1
N=C(NC(=N)c1ncc(Cl)cc1Cl)Nc1nc2ccccc2s1 : 76.4
N=C(NC(=N)c1ccc(Cl)cc1)Nc1nc2ccccc2s1 : 79.6

Find the recorded viability at 10 µM belonging to N=C(NC(=N)c1ccc(Cl)cc1)Nc1nc(-c2cccc([N+](=O)[O-])c2)cs1 and report it.
78

Find the recorded viability at 10 µM belonging to Cc1nc(NC(=N)NC(=N)c2ccccn2)sc1C and report it.
24.9

Find the recorded viability at 10 µM belonging to Cc1csc(NC(=N)NC(=N)c2cccnc2)n1 and report it.
14.4

Find the recorded viability at 10 µM belonging to CC1(C)C=Cc2cc(C(=N)NC(=N)Nc3nc4ccccc4s3)ccc2O1 and report it.
18.4

Origin of values: patent US11440906B2
